Test system: T47D
assay-info: NCI tumour cell line growth inhibition, 48 h
Activity calls are given as the source filed them. Rule as the data show it: active = GI50 up to about 1.1 µM and inactive = higher.
quantity-measured: GI50

Guide cases for GI50, answers given:
compound=O=c1[nH]nc(N/N=C\c2ccc(Cl)cc2)c2ccccc12 test_target=T47D quantity_measured=GI50 measurement="25.7 µM (inactive)"
compound=O=c1c(C(c2ccccn2)c2c(O)oc3cc(O)ccc3c2=O)c(O)oc2cc(O)ccc12 test_target=T47D quantity_measured=GI50 measurement="> 100 µM (inactive)"
compound=CC(=O)OC[C@@]12CC[C@H]3C(C)(C)CCC[C@]3(C)[C@H]1C[C@@H](C1=CC(=O)O[C@H]1O)O2 test_target=T47D quantity_measured=GI50 measurement="2.59 µM (inactive)"
compound="c1cncc(C2(c3cc4ccccc4[nH]3)COCO2)c1 (stereo not given)" test_target=T47D quantity_measured=GI50 measurement="> 100 µM (inactive)"

As a next step, examine the compound that follows.
Prompt: For the compound shown here, "Cc1nc(O)c2c3c(sc2n1)CCCC3" , give the reported GI50.
Completion: > 100 µM (inactive)

Taken from ChEMBL document CHEMBL1201862.
